# STUDY_SYSTEM: serotoninergic 5-HT2A receptor (Homo sapiens)
# EXPERIMENTAL_DETAILS: Binding assay 5-HT2A (h), [3H]ketanserin, HEK-293 cells
# Design: expressed in transfected cells; host or cells: HEK-293 cells
# CONDITION_LABEL: read-out: 5-HT2A
Label 1 (yes) when inhibition at 1 µM is at or above 60%; anything below gets 0 (no).

O=S(=O)(NCCCCN1CCN(c2nsc3ccccc23)CC1)c1ccc2c(c1)CCO2	1 (yes)

Enquiry: Evaluate `Cc1cccc(S(=O)(=O)NCCCN2CCN(c3cccc4[nH]c(=O)[nH]c34)CC2)c1` : inhibition at 1 µM at minimum 60%?
Return: 0 (no)

Enquiry: Evaluate `CC(C)(C)c1ccc(S(=O)(=O)NCCCN2CCN(c3nsc4ccccc34)CC2)cc1` : inhibition at 1 µM at minimum 60%?
Return: 1 (yes)

* * *

# STUDY_SYSTEM: dopaminergic D3 receptor (Homo sapiens, UniProt P35462)
# Sequence (P35462 whole entry): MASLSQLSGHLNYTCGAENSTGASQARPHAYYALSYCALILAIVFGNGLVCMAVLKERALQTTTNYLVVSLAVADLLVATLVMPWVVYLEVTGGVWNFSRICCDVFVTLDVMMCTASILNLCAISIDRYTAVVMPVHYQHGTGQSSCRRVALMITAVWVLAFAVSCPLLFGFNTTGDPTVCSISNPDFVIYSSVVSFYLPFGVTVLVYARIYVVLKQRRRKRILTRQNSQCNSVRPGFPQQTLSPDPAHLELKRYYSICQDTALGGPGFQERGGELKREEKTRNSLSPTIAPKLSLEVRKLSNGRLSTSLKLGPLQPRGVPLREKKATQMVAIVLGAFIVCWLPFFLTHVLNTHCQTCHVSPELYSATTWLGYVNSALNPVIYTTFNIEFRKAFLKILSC
# EXPERIMENTAL_DETAILS: Binding assay D3 (h), [3H]methyl-spiperone, CHO cells
# Design: expressed in transfected cells; host or cells: CHO cells
# CONDITION_LABEL: read-out: D3 [%]
Below is a list of entries, each paired with its recorded inhibition at 1 µM value.

O=S(=O)(NCCCCN1CCN(c2cccc3c2OCCO3)CC1)c1ccc(Cl)s1	90%
O=S(=O)(NCCCCN1CCN(c2noc3ccccc23)CC1)c1ccc2c(c1)CCO2	79%
O=S(=O)(NCCCN1CCC(c2noc3cc(F)ccc23)CC1)c1ccc(C(F)(F)F)cc1	96%

Enquiry: Recall the recorded inhibition at 1 µM for `O=c1[nH]c2cccc(N3CCN(CCCNS(=O)(=O)c4cccc5ccccc45)CC3)c2[nH]1` with dopaminergic D3 receptor (Homo sapiens, UniProt P35462) and state it.
Return: 98%

* * *

# STUDY_SYSTEM: dopaminergic D2 receptor (Homo sapiens)
# Sequence (P14416 1-414 isoform P14416-2): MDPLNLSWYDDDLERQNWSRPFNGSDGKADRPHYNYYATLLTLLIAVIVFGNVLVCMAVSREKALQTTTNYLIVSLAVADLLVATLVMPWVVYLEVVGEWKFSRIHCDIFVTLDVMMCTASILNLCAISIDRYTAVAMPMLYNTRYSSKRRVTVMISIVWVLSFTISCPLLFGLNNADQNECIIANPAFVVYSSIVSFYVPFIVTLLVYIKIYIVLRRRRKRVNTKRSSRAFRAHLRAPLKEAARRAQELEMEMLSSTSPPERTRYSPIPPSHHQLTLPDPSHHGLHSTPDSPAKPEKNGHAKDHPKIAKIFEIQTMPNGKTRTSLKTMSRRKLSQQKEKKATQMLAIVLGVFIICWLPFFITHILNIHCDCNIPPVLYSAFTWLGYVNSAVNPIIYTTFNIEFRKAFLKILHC
# EXPERIMENTAL_DETAILS: Binding assay D2S (h), [3H]methyl-spiperone, HEK-293 cells
# Parameters: expressed in transfected cells; host or cells: HEK-293 cells
# CONDITION_LABEL: read-out: D2 [%]
VALUE_TYPE: inhibition at 1 µM (%)
Answer with a number only, understood to be in %.

Solved cases (8 shown):
Cc1c(S(=O)(=O)NCCCCN2CCN(c3noc4ccccc34)CC2)sc2ccc(F)cc12 [Compound 81]	90
Cc1[nH]c2ccc(Cl)cc2c1C1=CCN(CCNS(=O)(=O)c2cccc(Cl)c2)CC1 [Compound 452]	42
Cc1[nH]c2ccc(Cl)cc2c1C1=CCN(CCNS(=O)(=O)c2ccc(F)cc2)CC1 [Compound 449]	31
O=c1[nH]c2ccc(S(=O)(=O)NCCN3CCN(c4nsc5ccccc45)CC3)cc2o1 [Compound 12]	93
Cc1[nH]c2ccc(Cl)cc2c1C1=CCN(CCNS(=O)(=O)c2cccc3ccccc23)CC1 [Compound 447]	3
Cc1[nH]c2ccc(Cl)cc2c1C1=CCN(CCCNS(=O)(=O)c2cccc3ccccc23)CC1 [Compound 441]	77
O=C1COc2c(cccc2N2CCN(CCCCNS(=O)(=O)c3ccc(Cl)s3)CC2)N1 [Compound 431]	68
O=S(=O)(NCCCCN1CCN(c2cccc3[nH]ccc23)CC1)c1cccc(Cl)c1 [Compound 113]	98

Then there is this compound:
Enquiry: Recorded inhibition at 1 µM of O=S(=O)(NCCCCN1CCN(c2cccc3[nH]ccc23)CC1)c1cccc(C(F)(F)F)c1 [Compound 361] , please.
Return: 99

* * *

# STUDY_SYSTEM: adrenergic α2C receptor (Homo sapiens, UniProt P18825)
# Sequence (P18825 whole entry): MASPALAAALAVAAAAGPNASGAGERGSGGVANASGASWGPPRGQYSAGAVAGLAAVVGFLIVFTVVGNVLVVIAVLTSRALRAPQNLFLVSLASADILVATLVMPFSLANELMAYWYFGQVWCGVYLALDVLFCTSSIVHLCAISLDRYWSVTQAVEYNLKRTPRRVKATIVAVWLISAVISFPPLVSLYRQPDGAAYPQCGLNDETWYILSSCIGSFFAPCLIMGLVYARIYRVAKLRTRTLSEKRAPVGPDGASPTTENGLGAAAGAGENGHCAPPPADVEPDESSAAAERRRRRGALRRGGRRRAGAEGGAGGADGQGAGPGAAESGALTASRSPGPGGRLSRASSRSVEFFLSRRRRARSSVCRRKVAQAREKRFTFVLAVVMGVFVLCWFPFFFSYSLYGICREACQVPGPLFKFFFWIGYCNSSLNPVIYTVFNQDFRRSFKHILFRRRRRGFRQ
# EXPERIMENTAL_DETAILS: Cellular functional assay, adrenergic α2C receptor (agonism/antagonism)
# Type: cell-based
# CONDITION_LABEL: read-out: α2C −antag. [%]
Label TRUE when inhibition at 1 µM is at or above 40%; anything below gets FALSE.

Field: example entries. Status: answers known.
O=S(=O)(NCCCCN1CCN(c2cccc3[nH]ccc23)CC1)c1ccc2ccccc2c1 [Compound 26]	TRUE
O=S(=O)(NCCCCN1CCC(c2noc3cc(F)ccc23)CC1)c1cc2ccc(Cl)cc2s1 [Compound 314]	FALSE
O=S(=O)(NCCCCN1CCN(c2noc3ccccc23)CC1)c1ccc2cc(Cl)ccc2c1 [Compound 79]	FALSE
O=S(=O)(NCCCCN1CCN(c2cccc3[nH]ccc23)CC1)c1cc2ccc(Cl)cc2s1 [Compound 363]	TRUE
O=S(=O)(NCCCCN1CCN(c2cccc3[nH]ccc23)CC1)c1cnc2ccccn12 [Compound 30]	FALSE

Enquiry: Evaluate Cc1c(S(=O)(=O)NCCCCN2CCC(c3noc4cc(F)ccc34)CC2)sc2ccc(F)cc12 [Compound 101] : inhibition at 1 µM at minimum 40%?
Return: TRUE

Enquiry: Evaluate O=S(=O)(NCCCCN1CCC(c2noc3cc(F)ccc23)CC1)c1ccc2cc(Cl)ccc2c1 [Compound 97] : inhibition at 1 µM at minimum 40%?
Return: FALSE

Enquiry: Evaluate O=S(=O)(NCCCCN1CCN(c2noc3ccccc23)CC1)c1cc2ccc(Cl)cc2s1 [Compound 288] : inhibition at 1 µM at minimum 40%?
Return: FALSE

* * *

# STUDY_SYSTEM: serotoninergic 5-HT1A receptor (Homo sapiens, UniProt P08908)
# Sequence (P08908 1-422): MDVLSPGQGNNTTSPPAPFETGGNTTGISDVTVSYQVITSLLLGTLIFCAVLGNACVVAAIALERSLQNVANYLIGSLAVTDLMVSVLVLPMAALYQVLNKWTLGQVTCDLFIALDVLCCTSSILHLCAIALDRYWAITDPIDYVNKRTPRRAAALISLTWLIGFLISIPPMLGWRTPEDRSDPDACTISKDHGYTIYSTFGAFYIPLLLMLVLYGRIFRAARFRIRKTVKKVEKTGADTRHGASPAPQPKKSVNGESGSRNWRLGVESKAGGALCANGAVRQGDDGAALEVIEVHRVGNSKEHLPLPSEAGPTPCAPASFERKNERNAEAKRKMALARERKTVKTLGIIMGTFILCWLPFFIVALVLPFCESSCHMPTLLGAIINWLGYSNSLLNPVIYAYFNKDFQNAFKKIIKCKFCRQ
# EXPERIMENTAL_DETAILS: Binding assay 5-HT1A (h), [3H]8-OH-DPAT, HEK-293 cells
# Design: expressed in transfected cells; host or cells: HEK-293 cells
# CONDITION_LABEL: read-out: 5-HT1A
Label True when inhibition at 1 µM is at or above 60%; anything below gets False.

Field: example entries. Status: answers known.
O=S(=O)(NCCCCN1CCN(c2noc3ccccc23)CC1)c1ccc(-c2ccccc2)cc1 [Compound 283]	True
O=S(=O)(NCCCCN1CCN(c2cccc3[nH]ccc23)CC1)c1ccc(F)cc1 [Compound 359]	True
O=C1COc2c(cccc2N2CCN(CCCCNS(=O)(=O)c3ccc(Cl)s3)CC2)N1 [Compound 431]	True
O=S(=O)(NCCCN1CC=C(c2c[nH]c3ccc(F)cc23)CC1)c1cccc(O)c1 [Compound 437]	False
O=S(=O)(NCCCN1CCN(c2nsc3ccccc23)CC1)c1ccc2ccccc2c1 [Compound 6]	True
Cc1[nH]c2ccc(Cl)cc2c1C1=CCN(CCCNS(=O)(=O)c2cccc(Cl)c2)CC1 [Compound 138]	False

Enquiry: Evaluate O=S(=O)(NCCCN1CCC(c2noc3cc(F)ccc23)CC1)c1cnc2ccccn12 [Compound 356] : inhibition at 1 µM at minimum 60%?
Return: True

Enquiry: Evaluate O=c1[nH]c2ccc(S(=O)(=O)NCCCN3CCC(c4noc5cc(F)ccc45)CC3)cc2o1 [Compound 353] : inhibition at 1 µM at minimum 60%?
Return: False

Enquiry: Evaluate O=C1COc2c(cccc2N2CCN(CCCCNS(=O)(=O)c3ccc(F)cc3)CC2)N1 [Compound 428] : inhibition at 1 µM at minimum 60%?
Return: True

Enquiry: Evaluate Cc1[nH]c2ccc(Cl)cc2c1C1=CCN(CCNS(=O)(=O)c2cccc3ccccc23)CC1 [Compound 447] : inhibition at 1 µM at minimum 60%?
Return: False

Enquiry: Evaluate O=S(=O)(NCCCCN1CCN(c2noc3ccccc23)CC1)c1cccc(F)c1 [Compound 87] : inhibition at 1 µM at minimum 60%?
Return: False

Enquiry: Evaluate O=S(=O)(NCCCN1CCC(c2noc3cc(F)ccc23)CC1)c1cccc2ccccc12 [Compound 20] : inhibition at 1 µM at minimum 60%?
Return: True

Enquiry: Evaluate O=S(=O)(NCCCCN1CCC(c2noc3cc(F)ccc23)CC1)c1ccc(F)cc1 [Compound 294] : inhibition at 1 µM at minimum 60%?
Return: False

Enquiry: Evaluate O=S(=O)(NCCCCN1CCN(c2nsc3ccccc23)CC1)c1ccc(OC(F)(F)F)cc1 [Compound 236] : inhibition at 1 µM at minimum 60%?
Return: True

Enquiry: Evaluate COc1cccc(S(=O)(=O)NCCCCN2CCN(c3cccc4c3OCCO4)CC2)c1 [Compound 394] : inhibition at 1 µM at minimum 60%?
Return: True
